- measuredOn: Human adrenergic α1B receptor (Homo sapiens, UniProt P35368)
- measurementProtocol: Radioligand binding, adrenergic α1B (Protocol Group B)
- Set-up: purchased Milipore (Millipore)
- conditionContext: 0.3 μM compound; Protocol Group B; read-out: Percentage inhibition of ligand binding, Adrenergic α1B (0.3 μM)
Please go through the items and note down their inhibition at 0.3 µM.
Numbers only, in %.

Use the examples below as a reference point.
In [3]: df
Out[3]:
                                   compound  assayvalue
0  Cc1ccc2c(c1)c1c(n2CC(O)c2ccncc2)CC[N+]2([O-])CCCC12 (stereo not shown) [compound 23]          65
1  Cc1cc(C)c2c(c1)c1c(n2CC(C)(O)c2cccnc2)CCN2CCCC12 (single isomer, unassigned) [44a]          71
2  CC(O)(Cn1c2c(c3cc(C(F)(F)F)ccc31)C1CCCN1CC2)c1cccnc1 (single isomer, unassigned) [64a]          47
3  Cc1ccc2c(c1)c1c(n2CC(C)(O)c2cnccc2F)CCN(C)C1 (stereo not shown) [compound 40]           3
4  CC(O)(Cn1c2c(c3cc(Cl)cc(F)c31)CN1CCCC1C2)c1ccncc1 (single isomer, unassigned) [86c]          15

Respectfully, I request inhibition at 0.3 µM for each entry included below.
1. Cc1ccc2c(c1)c1c(n2C[C@@H](OC2CCCC2)c2ccncc2)CCN2CCC[C@H]12 [compound 82]
2. Cc1ccc2c(c1)c1c(n2CC(OCC2CCC2)c2ccncc2)CCN(C)C1 (stereo not shown) [59b]
3. Cc1ccc2c(c1)c1c(n2CC(O)c2ccc(C(=O)N(C)C)nc2)CCN(C)C1 (stereo not shown) [compound 54]

Resp:
1: 81; 2: 62; 3: 8

Respectfully, I request inhibition at 0.3 µM for each entry included below.
1. Cc1ccc2c(c1)c1c(n2CC(O)c2ccncc2F)CCN2CCCC12 (stereo not shown) [compound 14]
2. Cc1ccc2c(c1)c1c(n2CC(C)(O)c2ccnc(F)c2)CCN2CCCC12 (single isomer, unassigned) [48a]
3. Cc1ccc2c(c1)c1c(n2CC(C)(O)c2cnc3ccccc3c2)CCN(C)C1 (single isomer, unassigned) [32a]
4. Cc1ccc2c(c1)c1c(n2CC(C)(O)c2cccnc2)CCN(CC(F)F)C1 (stereo not shown) [compound 58]

Resp:
90
94
26
-4

Respectfully, I request inhibition at 0.3 µM for each entry included below.
1. Cc1ccc2c(c1)c1c(n2CC(C)(O)c2ccc(F)cc2)CC2CCC1N2C (single isomer, unassigned) [102b]
2. Cc1cc(Cl)c2c(c1)c1c(n2CC(C)(O)c2ccncc2)CCN2CCCC12 (single isomer, unassigned) [91a]
3. Cc1ccc2c(c1)c1c(n2CC(OC(C)C)c2ccncc2)CCN(C)C1 (stereo not shown) [compound 49]

Resp:
1. 26
2. 81
3. 40

Req: Can you share its inhibition at 0.3 µM? I mean this compound: CC(O)(Cn1c2c(c3cc(F)cc(Cl)c31)C1CCCN1CC2)c1cccnc1 (single isomer, unassigned) [89a]
Resp: 13

====

- measuredOn: Human adrenergic α1B receptor (Homo sapiens, UniProt P35368)
- Sequence (P35368 1-520): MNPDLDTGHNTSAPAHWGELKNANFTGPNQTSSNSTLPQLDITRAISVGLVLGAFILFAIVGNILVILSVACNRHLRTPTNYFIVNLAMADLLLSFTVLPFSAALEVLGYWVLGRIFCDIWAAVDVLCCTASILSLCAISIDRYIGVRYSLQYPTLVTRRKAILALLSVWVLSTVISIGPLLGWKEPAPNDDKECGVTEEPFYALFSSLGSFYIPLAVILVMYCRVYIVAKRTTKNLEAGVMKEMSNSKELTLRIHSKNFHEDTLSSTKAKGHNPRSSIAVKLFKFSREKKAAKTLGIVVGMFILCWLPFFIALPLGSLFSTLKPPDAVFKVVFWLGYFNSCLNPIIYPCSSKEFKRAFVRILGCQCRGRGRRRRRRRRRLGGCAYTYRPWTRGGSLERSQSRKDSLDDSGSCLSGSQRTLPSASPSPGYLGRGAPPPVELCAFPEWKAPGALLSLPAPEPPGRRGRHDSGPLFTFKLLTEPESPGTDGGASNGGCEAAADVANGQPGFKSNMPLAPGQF
- measurementProtocol: Radioligand binding, adrenergic α1B (Protocol Group B)
- Parameters: purchased Milipore (Millipore)
- conditionContext: 0.1 μM compound; Protocol Group B; 0.1 µM
- Protocol: To evaluate the activity of compounds in radioligand binding assays, Human adrenergic α1B receptor obtained from recombinant cell membrane from Milipore. Binding experiments were carried out in Tris-HCl buffer (50 mM Tris-HCl buffer, pH 7.4, 10 mM Mgcl2, 1 mM EDTA) as recommended by Milipore. […] Receptor proteins were harvested on 0.33% PEI(poly-ethylenemine) soaked GFC filter mat, the specifically bound [^3H]Prazosin were counted to determine total binding. […]
Please go through the items and note down their Percentage inhibition of ligand binding, Adrenergic α1B (0.1 μM).
One number for each entry, in %.

Use the examples below as a reference point.
>>> df
                                   compound                                measuredon  assayvalue
0  CC(O)(Cn1c2c(c3cc(F)cc(Cl)c31)C1CCCN1CC2)c1ccncc1 (single isomer, unassigned) [88a]  Human adrenergic α1B receptor (Homo sapiens, UniProt P35368)          15
1  Cc1ccc2c(c1)c1c(n2CC(C)(O)c2ccc(F)cc2)CN2CCC1C2 (single isomer, unassigned) [134b]  Human adrenergic α1B receptor (Homo sapiens, UniProt P35368)          29
2  CN1CCc2c(c3cc(CCO)ccc3n2CC(O)c2ccncc2)C1 (single isomer, unassigned) [140a]  Human adrenergic α1B receptor (Homo sapiens, UniProt P35368)          −9
3  OC(Cn1c2c(c3cc(F)ccc31)C1CCCN1CC2)c1ccncc1 (single isomer, unassigned) [18c]  Human adrenergic α1B receptor (Homo sapiens, UniProt P35368)           5
4  Cc1ccc2c(c1)c1c(n2CC(C)(O)c2ccc(F)cc2)CC2CCC1N2C (single isomer, unassigned) [102c]  Human adrenergic α1B receptor (Homo sapiens, UniProt P35368)          −4
5  Cc1cc(F)cc2c3c(n(CC(C)(O)c4ccncc4)c12)CC1CCCN1C3 (single isomer, unassigned) [78a]  Human adrenergic α1B receptor (Homo sapiens, UniProt P35368)           2

Now for a further compound.
Req: Can you share its Percentage inhibition of ligand binding, Adrenergic α1B (0.1 μM)? I mean this compound: Cc1ccc2c(c1)c1c(n2CC(C)(O)c2ccc(F)cc2)CN2CCC1C2 (single isomer, unassigned) [134d]
Resp: 28

====

- measuredOn: Human adrenergic α2B receptor (Homo sapiens, UniProt P18089)
- Sequence (P18089 whole entry): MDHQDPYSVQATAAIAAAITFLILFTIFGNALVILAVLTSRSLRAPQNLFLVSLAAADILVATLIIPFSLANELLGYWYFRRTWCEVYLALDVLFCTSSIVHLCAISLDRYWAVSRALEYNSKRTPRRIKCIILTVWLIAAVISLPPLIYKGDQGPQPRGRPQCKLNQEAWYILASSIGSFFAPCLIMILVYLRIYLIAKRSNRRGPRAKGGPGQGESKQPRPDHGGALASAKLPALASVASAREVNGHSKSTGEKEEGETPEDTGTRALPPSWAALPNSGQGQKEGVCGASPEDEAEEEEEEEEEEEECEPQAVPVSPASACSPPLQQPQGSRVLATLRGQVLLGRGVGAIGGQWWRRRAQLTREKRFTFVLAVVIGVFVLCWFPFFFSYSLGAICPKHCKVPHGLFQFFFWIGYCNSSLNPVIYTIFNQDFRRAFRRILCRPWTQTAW
- measurementProtocol: Radioligand binding, adrenergic α2B (Protocol Group B)
- Set-up: purchased Milipore (Millipore)
- conditionContext: 30 nM compound; Protocol Group B; read-out: Percentage inhibition of ligand binding, Adrenergic α2B (30 nM)
- Method: To evaluate the activity of compounds in radioligand binding assays, Human adrenergic α2B receptor obtained from recombinant cell membrane from Milipore. Binding experiments were carried out in Tris-HCl buffer (50 mM Tris-HCl buffer, pH 7.4, 5 mM Mgcl2, 1 mM Cacl2, 0.2% BSA) as recommended by Milipore. […] Non-specific binding was estimated in the presence of 10 μM Rauwolscine. […] Compounds were screened at various concentrations, using 1% DMSO as vehicle. […]
Is inhibition at 0.03 µM at least 90%? Then Fulfilled. If not, Not fulfilled.

Worked set:
>>> print(df.to_string())
                                   compound    answerlabel
0  Cc1cc2c3c(n(CC(C)(O)c4ccncc4)c2cc1Cl)CCN1CCCC31 (single isomer, unassigned) [50a]      Fulfilled
1  Cc1ccc2c(c1)c1c(n2CC(O)c2ccc(C(=O)N3CCCC3)nc2)CCN(C)C1 (stereo not shown) [compound 96]  Not fulfilled
2  Cc1ccc2c(c1)c1c(n2CC(O)c2cc[n+]([O-])cc2)CCN2CCCC12 (stereo not shown) [compound 22]  Not fulfilled
3  CN1CCc2c(c3c(Cl)ccc(Cl)c3n2CC(O)c2cccnc2)C1 (stereo not shown) [Compound No. 17]  Not fulfilled
4  CC(O)(Cn1c2c(c3cc(Cl)cc(F)c31)CN1CCCC1C2)c1ccncc1 (single isomer, unassigned) [86c]  Not fulfilled

Req: Hello, I need to know if Cc1cc(F)c2c(c1)c1c(n2CC(C)(O)c2ccncc2)CCN2CCCC12 (single isomer, unassigned) [81a] has measured inhibition at 0.03 µM not below 90%. Thanks!
Resp: Fulfilled

Req: Ok, now OCc1ccc2c(c1)c1c(n2CC(O)c2ccncc2)CCN2CCCC12 (stereo not shown) [compound 29]
Resp: Not fulfilled

Req: Ok, now CN1CCc2c(c3cc(C(F)(F)F)ccc3n2CC(OC2CCCC2)c2ccncc2)C1 (single isomer, unassigned) [60a]
Resp: Not fulfilled
